# target desc: h5-HT5A receptor (Homo sapiens, UniProt P47898)
# Construct: expressed in transfected cells
# Sequence (P47898 whole entry): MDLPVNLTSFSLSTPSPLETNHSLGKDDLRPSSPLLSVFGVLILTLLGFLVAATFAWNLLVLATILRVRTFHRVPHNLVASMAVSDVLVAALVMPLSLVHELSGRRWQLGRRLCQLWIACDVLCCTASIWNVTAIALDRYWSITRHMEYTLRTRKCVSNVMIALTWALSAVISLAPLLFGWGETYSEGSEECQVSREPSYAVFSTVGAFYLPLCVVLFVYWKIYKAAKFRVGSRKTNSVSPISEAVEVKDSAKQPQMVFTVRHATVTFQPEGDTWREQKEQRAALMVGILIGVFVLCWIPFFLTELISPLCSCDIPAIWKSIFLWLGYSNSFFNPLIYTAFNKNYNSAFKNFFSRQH
# assay name: h5-HT5A-[3H]5-CT binding assay
# test conditions: membranes of HEK293 cells expressing h5-HT5A; 2.5 nM [3H]5-CT; read-out: Binding affinity 5-HT5A (Ki)
Counter-ions that a name gives are not always drawn.
What Ki was measured for each of the following?

Some compounds with known Ki results, for comparison:
INSERT INTO assay_data (compound, target_desc, endpoint_result) VALUES
  ('COc1ccccc1Cn1cc(-c2ccc(N)cc2)nc1N [Example 53, hydrochloride]', 'h5-HT5A receptor (Homo sapiens, UniProt P47898)', '< 600 nM'),
  ('COc1ccccc1Cn1cc(-c2cccc(NS(=O)(=O)c3ccc(-c4ccccc4)cc3)c2)nc1N [Example 63]', 'h5-HT5A receptor (Homo sapiens, UniProt P47898)', '< 600 nM');

Please turn your attention to the following entry.
Problem: Determine its reported Ki: COc1ccccc1Cn1cc(-c2csc3ccccc23)nc1N [Example 17, hydrochloride]
Solution: < 600 nM

----------
I'd be grateful if you could share measured Ki for these entries.
# target desc: h5-HT5A receptor (Homo sapiens, UniProt P47898)

Please report Ki for every entry that follows.
1. COc1ccccc1Cn1cc(-c2cccc(NS(=O)(=O)c3ccccc3)c2)nc1N
2. COc1cccc(F)c1Cn1cc(-c2ccc(C#N)cc2)nc1N
3. COc1cccc(-c2cn(Cc3ccccc3OC)c(N)n2)c1

Solution:
["< 600 nM", "< 600 nM", "< 600 nM"]

----------
Read-out record for h5-HT5A receptor (Homo sapiens): pKi
pKi: −log10 of the molar value.

Answered examples (3):
INSERT INTO assay_data (compound, endpoint_result) VALUES
  ('CCOC(=O)c1cn(Cc2ccccc2OC)c(N)n1', '< 6.22'),
  ('COc1ccccc1Cn1cc(-c2cccc(NS(=O)(=O)c3ccc(C(C)C)cc3)c2)nc1N', '> 6.22'),
  ('COc1ccccc1Cn1cc(-c2cccc3ccccc23)nc1N', '> 6.22');

Count: 5. Required value per item: pKi.
1. COc1ccccc1Cn1cc(-c2cccc([N+](=O)[O-])c2)nc1N
2. COc1ccccc1Cn1cc(-c2ccc(C)cc2)nc1N
3. COc1ccccc1Cn1cc(-c2cccnc2)nc1N
4. COc1ccccc1Cn1cc(-c2cccc(NC(=O)c3ccccc3)c2)nc1N
5. CCOC(=O)c1cc(-c2cn(Cc3ccccc3OC)c(N)n2)on1

Solution:
> 6.22
> 6.22
> 6.22
> 6.22
< 6.22

----------
# target desc: h5-HT5A receptor (Homo sapiens, UniProt P47898)
# Construct: expressed in transfected cells
# assay name: h5-HT5A-[3H]5-CT binding assay
# test conditions: membranes of HEK293 cells expressing h5-HT5A; 2.5 nM [3H]5-CT; read-out: Binding affinity 5-HT5A (Ki)
pKi: −log10 of the molar value. Structures can show the parent of a compound that is named as a salt.
quantity name: pKi

Example entries begin here.
INSERT INTO assay_data (compound, endpoint_result) VALUES
  ('COc1ccccc1Cn1cc(-c2ccsc2)nc1N [Example 20, hydrochloride]', '> 6.22'),
  ('COc1ccccc1Cn1cc(-c2ccc(C)s2)nc1N', '> 6.22'),
  ('COc1ccc(-c2nc(Cc3ccccc3OC)c(N)[nH]2)cc1 [Example 62, hydrochloride]', '< 6.22');

Problem: Consider the compound `COc1ccccc1Cn1cc(-c2ccc(OCc3ccccc3)cc2)nc1N` . State its measured pKi.
Solution: > 6.22
